# Tested on: SF-295
# Experiment notes: NCI tumour cell line growth inhibition, 48 h
Activity calls are given as the source filed them. Rule as the data show it: active = GI50 up to about 1.1 µM and inactive = higher.
For each entry below, report its GI50 value.

Requested read-out GI50, target or system SF-295, entry CN(C)/N=N/c1ccc(NC=O)cc1 > 100 µM (inactive)

Hi! What's the reported GI50 for CCOC(CN(C)C(=O)Nc1ccc(Cl)c(Cl)c1)OCC on SF-295? > 10 µM (inactive)

What value of GI50 on SF-295 does CCOP(C)(=O)C(Cc1c[nH]c2ccccc12)C(=O)O (stereo not given) have? > 100 µM (inactive)

Item O=C(CCc1ccccc1)CC1OC(=O)C(Cl)=C1Cl (stereo not given) with SF-295 - GI50? 27.4 µM (inactive)

What value of GI50 on SF-295 does N#C/C(=C\c1cccc(O)c1)C(N)=O have? > 100 µM (inactive)
